target: Casein kinase I isoform epsilon (Homo sapiens) (UniProt P49674); assay: Inhibition of human CK1epsilon assessed as residual activity at 10 uM by ADP-Glo assay relative to control
Sequence (P49674 whole entry, looked up, canonical isoform): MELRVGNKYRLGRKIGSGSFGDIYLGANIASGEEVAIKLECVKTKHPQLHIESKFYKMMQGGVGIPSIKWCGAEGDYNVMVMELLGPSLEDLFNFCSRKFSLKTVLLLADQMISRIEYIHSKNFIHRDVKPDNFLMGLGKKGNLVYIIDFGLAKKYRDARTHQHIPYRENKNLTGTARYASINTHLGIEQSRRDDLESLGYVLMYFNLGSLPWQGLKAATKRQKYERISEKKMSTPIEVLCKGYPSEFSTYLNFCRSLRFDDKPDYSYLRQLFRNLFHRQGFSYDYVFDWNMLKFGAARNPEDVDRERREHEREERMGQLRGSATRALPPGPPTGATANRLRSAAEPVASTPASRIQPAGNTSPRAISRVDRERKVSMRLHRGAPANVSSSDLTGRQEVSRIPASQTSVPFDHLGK
Catalogue of Activity values
Measurement Type: Activity (%)

> print(dat)
                               record.smiles  measurement.type  unit.info  recorded.number
 1  COc1ccccc1-n1cc(COc2cccc3cnc(Nc4cccc(Cl)c4)nc23)nn1          Activity          %               96
 2  COc1cccc(-n2cc(COc3cccc4cnc(Nc5cccc(Cl)c5)nc34)nn2)c1          Activity          %               40
 3  Clc1cccc(Nc2ncc3cccc(OCc4cn(Cc5ccccc5)nn4)c3n2)c1          Activity          %               79
 4  Clc1cccc(Nc2ncc3cccc(OCc4cn(Cc5c(Cl)cccc5Cl)nn4)c3n2)c1          Activity          %              100
 5  O=[N+]([O-])c1ccc(-n2cc(COc3cccc4cnc(Nc5cccc(Cl)c5)nc34)nn2)cc1          Activity          %               86
 6  Clc1ccc(-n2cc(COc3cccc4cnc(Nc5cccc(Cl)c5)nc34)nn2)cc1          Activity          %              100
 7  Clc1cccc(Nc2ncc3cccc(OCc4cn(-c5ccc(Br)cc5)nn4)c3n2)c1          Activity          %               79
 8  COc1ccc(-n2cc(COc3cccc4cnc(Nc5cccc(Cl)c5)nc34)nn2)cc1          Activity          %               86
 9  Clc1cccc(Nc2ncc3cccc(OCc4cn(-c5cc(Cl)cc(Cl)c5)nn4)c3n2)c1          Activity          %               55
10  O=[N+]([O-])c1ccc(Cn2cc(COc3cccc4cnc(Nc5cccc(Cl)c5)nc34)nn2)cc1          Activity          %               65
11  Cc1ccc(-n2cc(COc3cccc4cnc(Nc5cccc(Cl)c5)nc34)nn2)cc1[N+](=O)[O-]          Activity          %               41

---

Catalogue of pIC50 values
test system: Caco-2; assay: cells; conditions: Homo sapiens, Caco-2, 48 h
pIC50: −log10 of the molar value.

Compound	Value Modifier	pIC50
Clc1cccc(Nc2ncc3cccc(OCc4cn(-c5ccc(Br)cc5)nn4)c3n2)c1	=	4.96
CC(=O)O[C@H]1C(=O)[C@@]2(C)[C@H]([C@H](OC(=O)c3ccccc3)[C@]3(O)C[C@H](OC(=O)[C@H](O)[C@@H](NC(=O)c4ccccc4)c4ccccc4)C(C)=C1C3(C)C)[C@]1(OC(C)=O)CO[C@@H]1C[C@@H]2O [PACLITAXEL]	=	7.85
Clc1ccc(-n2cc(COc3cccc4cnc(Nc5cccc(Cl)c5)nc34)nn2)cc1	=	4.62
Clc1cccc(Nc2ncc3cccc(OCc4cn(Cc5c(Cl)cccc5Cl)nn4)c3n2)c1	=	5.05
COc1cccc2c1C(=O)c1c(O)c3c(c(O)c1C2=O)C[C@@](O)(C(=O)CO)C[C@@H]3O[C@H]1C[C@H](N)[C@H](O)[C@H](C)O1 [DOXORUBICIN]	=	7.30
COc1ccccc1-n1cc(COc2cccc3cnc(Nc4cccc(Cl)c4)nc23)nn1	<	4.60
COc1cccc(-n2cc(COc3cccc4cnc(Nc5cccc(Cl)c5)nc34)nn2)c1	=	4.70
Clc1cccc(Nc2ncc3cccc(OCc4cn(-c5cc(Cl)cc(Cl)c5)nn4)c3n2)c1	=	5.10

---

tested on: Fibroblast; test: cells; settings: Homo sapiens, 48 h
Description: Cytotoxicity against human Fibroblast cells assessed as reduction in cell viability incubated for 48 hrs by Hoechst-33342 staining based cell counting method (Rvb > 25 microM)

Compound	Experimental System	Value Modifier	IC50 (µM)
COc1ccccc1-n1cc(COc2cccc3cnc(Nc4cccc(Cl)c4)nc23)nn1	Fibroblast	>	25
COc1cccc2c1C(=O)c1c(O)c3c(c(O)c1C2=O)C[C@@](O)(C(=O)CO)C[C@@H]3O[C@H]1C[C@H](N)[C@H](O)[C@H](C)O1 [DOXORUBICIN]	Fibroblast	=	0.015
Clc1cccc(Nc2ncc3cccc(OCc4cn(Cc5c(Cl)cccc5Cl)nn4)c3n2)c1	Fibroblast	=	14
CC(=O)O[C@H]1C(=O)[C@@]2(C)[C@H]([C@H](OC(=O)c3ccccc3)[C@]3(O)C[C@H](OC(=O)[C@H](O)[C@@H](NC(=O)c4ccccc4)c4ccccc4)C(C)=C1C3(C)C)[C@]1(OC(C)=O)CO[C@@H]1C[C@@H]2O [PACLITAXEL]	Fibroblast	=	0.1
Clc1ccc(-n2cc(COc3cccc4cnc(Nc5cccc(Cl)c5)nc34)nn2)cc1	Fibroblast	>	25
CC[C@H](CO)Nc1nc(NCc2ccccc2)c2ncn(C(C)C)c2n1 [SELICICLIB]	Fibroblast	=	6
Clc1cccc(Nc2ncc3cccc(OCc4cn(-c5ccc(Br)cc5)nn4)c3n2)c1	Fibroblast	>	25
Clc1cccc(Nc2ncc3cccc(OCc4cn(-c5cc(Cl)cc(Cl)c5)nn4)c3n2)c1	Fibroblast	=	8
COc1cccc(-n2cc(COc3cccc4cnc(Nc5cccc(Cl)c5)nc34)nn2)c1	Fibroblast	=	18

---

target: Glycogen synthase kinase-3 beta (Homo sapiens) (UniProt P49841); test: Inhibition of human GSK3beta assessed as residual activity at 10 uM by ADP-Glo assay relative to control
Sequence (P49841 whole entry, looked up): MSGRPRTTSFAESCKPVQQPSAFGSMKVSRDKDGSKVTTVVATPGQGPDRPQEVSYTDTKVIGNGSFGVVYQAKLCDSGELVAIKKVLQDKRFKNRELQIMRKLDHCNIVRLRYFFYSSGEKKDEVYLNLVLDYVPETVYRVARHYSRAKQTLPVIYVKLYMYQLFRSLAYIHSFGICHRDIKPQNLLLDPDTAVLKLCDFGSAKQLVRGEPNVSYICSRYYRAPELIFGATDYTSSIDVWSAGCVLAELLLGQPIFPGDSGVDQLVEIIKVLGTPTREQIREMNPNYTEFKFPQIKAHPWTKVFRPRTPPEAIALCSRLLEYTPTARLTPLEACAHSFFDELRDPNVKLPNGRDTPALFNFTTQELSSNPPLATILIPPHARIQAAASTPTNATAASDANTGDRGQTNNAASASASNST
Catalogue of Activity values
Measurement Type: Activity (%)

> print(dat)
                              record.smiles  recorded.number
1  O=[N+]([O-])c1ccc(Cn2cc(COc3cccc4cnc(Nc5cccc(Cl)c5)nc34)nn2)cc1               60
2  COc1ccc(-n2cc(COc3cccc4cnc(Nc5cccc(Cl)c5)nc34)nn2)cc1               47
3  Clc1ccc(-n2cc(COc3cccc4cnc(Nc5cccc(Cl)c5)nc34)nn2)cc1               87
4  Clc1cccc(Nc2ncc3cccc(OCc4cn(-c5ccc(Br)cc5)nn4)c3n2)c1               77
5  COc1ccccc1-n1cc(COc2cccc3cnc(Nc4cccc(Cl)c4)nc23)nn1               61
6  Clc1cccc(Nc2ncc3cccc(OCc4cn(Cc5ccccc5)nn4)c3n2)c1               48
7  Cc1ccc(-n2cc(COc3cccc4cnc(Nc5cccc(Cl)c5)nc34)nn2)cc1[N+](=O)[O-]               14

---

target: CDK9/cyclin T1 (Homo sapiens) (UniProt O60563+P50750); assay: Inhibition of human CDK9/CyclinT assessed as residual activity at 10 uM by ADP-Glo assay relative to control; type: protein-complex assay
# if value of Activity reaches 70%, tag MET; if it stays below, tag NOT MET

> print(dat)
                              record.smiles  assigned.category
1  Clc1cccc(Nc2ncc3cccc(OCc4cn(-c5ccc(Br)cc5)nn4)c3n2)c1                MET
2  COc1ccc(-n2cc(COc3cccc4cnc(Nc5cccc(Cl)c5)nc34)nn2)cc1                MET
3  O=[N+]([O-])c1ccc(-n2cc(COc3cccc4cnc(Nc5cccc(Cl)c5)nc34)nn2)cc1            NOT MET
4  Cc1ccc(-n2cc(COc3cccc4cnc(Nc5cccc(Cl)c5)nc34)nn2)c([N+](=O)[O-])c1            NOT MET

---

target: DYRK1A (dual specificity tyrosine-phosphorylation-regulated kinase 1A) (Rattus norvegicus); assay: Inhibition of rat DYRK1A (1 to 499 residues) assessed as residual activity at 10 uM by ADP-Glo assay relative to control; details: rat DYRK1A enzyme (residues 1 to 499), read-out: Activity
Measurement Type: activity at 10 µM (%)

> print(dat)
                              record.smiles  recorded.number
1  Clc1cccc(Nc2ncc3cccc(OCc4cn(Cc5c(Cl)cccc5Cl)nn4)c3n2)c1               75
2  COc1ccccc1-n1cc(COc2cccc3cnc(Nc4cccc(Cl)c4)nc23)nn1              100
3  O=[N+]([O-])c1ccc(Cn2cc(COc3cccc4cnc(Nc5cccc(Cl)c5)nc34)nn2)cc1               88
4  Clc1cccc(Nc2ncc3cccc(OCc4cn(-c5cc(Cl)cc(Cl)c5)nn4)c3n2)c1              100
5  Clc1cccc(Nc2ncc3cccc(OCc4cn(-c5ccc(Br)cc5)nn4)c3n2)c1               95
